experimental.system: T1, PSMA Fab (006 PSMA Fab)
T1 construct: also called Anti-PSMA Fab
assay.procedure: clonal phage ELISA on biotinylated PSMA Fab captured on neutravidin plates, anti-M13 HRP detection;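 note: crude clonal phage supernatants tested, before phage were added, wells were pretreated with PSMA antigen in blocking buffer or with blocking buffer only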
endpoint.name: Phage binding ELISA signal, Anti-PSMA Fab
Answer using only a numeral; do not append any unit.

PEARCIPMWMCERL [Phage-3676]; 1.48
VIPKCEPKWMCHSL [Phage-3678]; 1.48
MIKMCKPYWMCEAM [Phage-3679]; 1.48
YTVQCVPTWMCAGL [Phage-3680]; 1.47

Per the record, GTMKCEPAWMCEGF [Phage-3674] has Phage binding ELISA signal, Anti-PSMA Fab of 1.48

response.value for DERMCRPAWMCEGL [Phage-3682] (field: Phage binding ELISA signal, Anti-PSMA Fab) = 1.47
